Tested on: 521955-158-R2-J5-PDC complex spheroid viability
Assay: Anticancer human tumor 521955-158-R2-J5-PDC patient-derived pancreatic carcinoma cell line growth inhibition; active = viability on the fitted dose curve at most 10% of control; inactive = the rest
Conditions: second compound 0.1 µM; first compound 0.03 µM
The reply should name one outcome from 1 (yes) = active, 0 (no) = inactive

Qu. Tell me the recorded outcome of this test for CCN(c1cc(-c2ccc(CN3CCOCC3)cc2)cc(C(=O)NCc2c(C)cc(C)[nH]c2=O)c1C)C1CCOCC1 + NC1CC1c1ccc(-c2cccc(O)c2)cc1 .
Ans. 0 (no)

Qu. Tell me the recorded outcome of this test for CCc1c2c(nc3ccc(O)cc13)-c1cc3c(c(=O)n1C2)COC(=O)[C@]3(O)CC + NC1CC1c1ccc(-c2cccc(O)c2)cc1 .
Ans. 1 (yes)

Qu. Tell me the recorded outcome of this test for CCc1c2c(nc3ccc(O)cc13)-c1cc3c(c(=O)n1C2)COC(=O)[C@]3(O)CC + NC1CCC(NC2CC2c2ccccc2)CC1 .
Ans. 1 (yes)

Qu. Tell me the recorded outcome of this test for Nc1ccccc1NC(=O)c1ccc(CNC(=O)OCc2cccnc2)cc1 + NC1CC1c1ccc(-c2cccc(O)c2)cc1 .
Ans. 0 (no)

Qu. Tell me the recorded outcome of this test for CCN(c1cc(-c2ccc(CN3CCOCC3)cc2)cc(C(=O)NCc2c(C)cc(C)[nH]c2=O)c1C)C1CCOCC1 + NC1CCC(NC2CC2c2ccccc2)CC1 .
Ans. 0 (no)

Qu. Tell me the recorded outcome of this test for O=C(C=Cc1cccc(S(=O)(=O)Nc2ccccc2)c1)NO + NC1CCC(NC2CC2c2ccccc2)CC1 .
Ans. 0 (no)

Qu. Tell me the recorded outcome of this test for Nc1ccn(C2OC(CO)C(O)C2(F)F)c(=O)n1 (centres undefined) + NC1CCC(NC2CC2c2ccccc2)CC1 .
Ans. 0 (no)

Qu. Tell me the recorded outcome of this test for O=C(C=Cc1cccc(S(=O)(=O)Nc2ccccc2)c1)NO + NC1CC1c1ccc(-c2cccc(O)c2)cc1 .
Ans. 0 (no)

Qu. Tell me the recorded outcome of this test for Nc1ccn(C2OC(CO)C(O)C2(F)F)c(=O)n1 (centres undefined) + NC1CC1c1ccc(-c2cccc(O)c2)cc1 .
Ans. 0 (no)

* * *

Tested on: 521955-158-R2-J5-PDC complex spheroid viability
Test: Anticancer human tumor 521955-158-R2-J5-PDC cell line growth inhibition;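 note: spheroids exposed to agents for seven days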;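 for viability, T/C: percent of DMSO vehicle control luminescence viability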
Conditions: second compound 10 µM; first compound 0.000949 µM; stronger effect = lower value
Exercise: for every item that follows, state its recorded viability, T/C.
Answer with a number only, understood to be in %.

Qu. Could you please provide reported viability, T/C for Nc1ccn(C2OC(CO)C(O)C2(F)F)c(=O)n1 (stereo unspecified) + NC1CC1c1ccc(-c2cccc(O)c2)cc1 ? Thanks!
Ans. 97.4

Qu. Could you please provide reported viability, T/C for Nc1ncn(C2CC(O)C(CO)S2)c(=O)n1 (stereo unspecified) + NC1CCC(NC2CC2c2ccccc2)CC1 ? Thanks!
Ans. 93.6

Qu. Could you please provide reported viability, T/C for CCc1c2c(nc3ccc(O)cc13)-c1cc3c(c(=O)n1C2)COC(=O)[C@]3(O)CC + NC1CCC(NC2CC2c2ccccc2)CC1 ? Thanks!
Ans. 4.7

Qu. Could you please provide reported viability, T/C for Nc1ncn(C2CC(O)C(CO)S2)c(=O)n1 (stereo unspecified) + NC1CC1c1ccc(-c2cccc(O)c2)cc1 ? Thanks!
Ans. 99

Qu. Could you please provide reported viability, T/C for CCc1c2c(nc3ccc(O)cc13)-c1cc3c(c(=O)n1C2)COC(=O)[C@]3(O)CC + NC1CC1c1ccc(-c2cccc(O)c2)cc1 ? Thanks!
Ans. 17.5

Qu. Could you please provide reported viability, T/C for Nc1ccn(C2OC(CO)C(O)C2(F)F)c(=O)n1 (stereo unspecified) + NC1CCC(NC2CC2c2ccccc2)CC1 ? Thanks!
Ans. 101

* * *

System: 521955-158-R2-J5-PDC complex spheroid viability
Experiment: Anticancer human tumor 521955-158-R2-J5-PDC cell line growth inhibition;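 note: spheroids exposed to agents for seven days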;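 for viability, T/C: percent of DMSO vehicle control luminescence viability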
Conditions: second compound 10 µM; first compound 0.000316 µM; stronger effect = lower value
Exercise: for every item that follows, state its recorded viability, T/C.
Answer with a number only, understood to be in %.

Qu. Could you please provide reported viability, T/C for CC[C@@]1(O)C(=O)OCc2c1cc1n(c2=O)Cc2cc3c(CN(C)C)c(O)ccc3nc2-1 + NC1CCC(NC2CC2c2ccccc2)CC1 ? Thanks!
Ans. 104

Qu. Could you please provide reported viability, T/C for Cn1ncnc1C1c2n[nH]c(=O)c3cc(F)cc(c23)NC1c1ccc(F)cc1 (stereo not drawn) + NC1CCC(NC2CC2c2ccccc2)CC1 ? Thanks!
Ans. 93.7

Qu. Could you please provide reported viability, T/C for CC(C)CC(NC(=O)C(Cc1ccccc1)NC(=O)c1cnccn1)B(O)O (stereo not drawn) + NC1CC1c1ccc(-c2cccc(O)c2)cc1 ? Thanks!
Ans. 52.8

Qu. Could you please provide reported viability, T/C for Cn1ncnc1C1c2n[nH]c(=O)c3cc(F)cc(c23)NC1c1ccc(F)cc1 (stereo not drawn) + NC1CC1c1ccc(-c2cccc(O)c2)cc1 ? Thanks!
Ans. 97.8

Qu. Could you please provide reported viability, T/C for CC(C)CC(NC(=O)C(Cc1ccccc1)NC(=O)c1cnccn1)B(O)O (stereo not drawn) + NC1CCC(NC2CC2c2ccccc2)CC1 ? Thanks!
Ans. 82.9

Qu. Could you please provide reported viability, T/C for CC[C@@]1(O)C(=O)OCc2c1cc1n(c2=O)Cc2cc3c(CN(C)C)c(O)ccc3nc2-1 + NC1CC1c1ccc(-c2cccc(O)c2)cc1 ? Thanks!
Ans. 103

Qu. Could you please provide reported viability, T/C for CC(C)CC(NC(=O)CNC(=O)c1cc(Cl)ccc1Cl)B1OC(=O)CC(CC(=O)O)(C(=O)O)O1 (stereo not drawn) + NC1CCC(NC2CC2c2ccccc2)CC1 ? Thanks!
Ans. 103

Qu. Could you please provide reported viability, T/C for CC(C)CC(NC(=O)CNC(=O)c1cc(Cl)ccc1Cl)B1OC(=O)CC(CC(=O)O)(C(=O)O)O1 (stereo not drawn) + NC1CC1c1ccc(-c2cccc(O)c2)cc1 ? Thanks!
Ans. 87.6

* * *

Tested on: 521955-158-R2-J5-PDC complex spheroid viability
Assay: Anticancer human tumor 521955-158-R2-J5-PDC cell line growth inhibition;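 note: spheroids exposed to agents for seven days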
Details: curve of first compound; second compound 1 µM
reported.endpoint: IC50 (nM)
Answer with a number only, understood to be in nM.

Qu. Could you please provide reported IC50 for Nc1ccccc1NC(=O)c1ccc(CNC(=O)OCc2cccnc2)cc1 + NC1CCC(NC2CC2c2ccccc2)CC1 ? Thanks!
Ans. 342

Qu. Could you please provide reported IC50 for CC(C)CC(NC(=O)C(Cc1ccccc1)NC(=O)c1cnccn1)B(O)O (centres undefined) + NC1CC1c1ccc(-c2cccc(O)c2)cc1 ? Thanks!
Ans. 0.515

* * *

Tested on: 521955-158-R2-J5-PDC complex spheroid viability
Test: Anticancer human tumor 521955-158-R2-J5-PDC cell line growth inhibition;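 note: spheroids exposed to agents for seven days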;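 for viability, T/C: percent of DMSO vehicle control luminescence viability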
Details: second compound 3.16 µM; first compound 10 µM; stronger effect = lower value
Text: Multicellular complex tumor spheroid response to LSD1 Inhibitor Iadademstat in combination with a variety of drugs and investigational agents in selected tumor cell lines The current study was undertaken to assess response to LSD1 inhibitors in combination with standard-of-care drugs and investigational agents in solid tumor complex spheroid models as well as in the K-562 leukemia. […] Compounds. […] If the clinical Cmax for an agent had not been determined, the highest concentration tested was 10 microM. […]
Exercise: for every item that follows, state its recorded viability, T/C.
Answer with a number only, understood to be in %.

Qu. Could you please provide reported viability, T/C for CC1COCCN1c1cc(C2(S(C)(=N)=O)CC2)nc(-c2ccnc3[nH]ccc23)n1 (stereo unspecified) + NC1CCC(NC2CC2c2ccccc2)CC1 ? Thanks!
Ans. 14.8

Qu. Could you please provide reported viability, T/C for CC(C)c1c(-c2ccccc2)nc2c(C#N)c[nH]n2c1=O + NC1CCC(NC2CC2c2ccccc2)CC1 ? Thanks!
Ans. 59.6

Qu. Could you please provide reported viability, T/C for O=C(c1cc(Cc2n[nH]c(=O)c3ccccc23)ccc1F)N1CCN(C(=O)C2CC2)CC1 + NC1CC1c1ccc(-c2cccc(O)c2)cc1 ? Thanks!
Ans. 55.8

Qu. Could you please provide reported viability, T/C for CC1(C)CCC(CN2CCN(c3ccc(C(=O)NS(=O)(=O)c4ccc(NCC5CCOCC5)c([N+](=O)[O-])c4)c(Oc4cnc5[nH]ccc5c4)c3)CC2)=C(c2ccc(Cl)cc2)C1 + NC1CCC(NC2CC2c2ccccc2)CC1 ? Thanks!
Ans. 0.91

Qu. Could you please provide reported viability, T/C for COc1ccc([C@@H](O)c2cc(-c3ncnc4cc(N5CCOCC5)ccc34)c(F)cc2Cl)nn1 + NC1CC1c1ccc(-c2cccc(O)c2)cc1 ? Thanks!
Ans. 21.7

Qu. Could you please provide reported viability, T/C for CC1COCCN1c1cc(C2(S(C)(=N)=O)CC2)nc(-c2ccnc3[nH]ccc23)n1 (stereo unspecified) + NC1CC1c1ccc(-c2cccc(O)c2)cc1 ? Thanks!
Ans. 15.3
